Sourced from PubChem BioAssay AID1963959

Would you kindly list viability, T/C for each of these compounds?
Test system: T-47D spheroids with HUVEC/MSC, viability
assay_details: Anticancer human tumor T-47D cell line growth inhibition [PI3K];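 note: spheroids exposed to agents for seven days before reading; percent of DMSO vehicle control luminescence so 100% = untreated growth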
assay_context: second compound 0.0316 µM; first compound 0.3 µM; hits give low values
Reply numerically in %, unit not repeated.

Prompt line: Sample Cn1cnc2c(F)c(Nc3ccc(Br)cc3Cl)c(C(=O)NOCCO)cc21 + CC(Nc1ncnc2nc[nH]c12)c1cc2cccc(Cl)c2c(=O)n1-c1ccccc1 — what was its viability, T/C?
Response line: 81

Prompt line: Sample Cn1cnc2c(F)c(Nc3ccc(Br)cc3Cl)c(C(=O)NOCCO)cc21 + CC(Nc1ccc2c(c1)OCCn1cc(N3C(=O)OCC3C(F)F)nc1-2)C(N)=O — what was its viability, T/C?
Response line: 96.6

Prompt line: Sample Cn1cnc2c(F)c(Nc3ccc(Br)cc3Cl)c(C(=O)NOCCO)cc21 + Cc1nc(NC(=O)N2CCCC2C(N)=O)sc1-c1ccnc(C(C)(C)C(F)(F)F)c1 — what was its viability, T/C?
Response line: 85.5

Prompt line: Sample Cn1cnc2c(F)c(Nc3ccc(Br)cc3Cl)c(C(=O)NOCCO)cc21 + COc1c(OCCCN2CCOCC2)ccc2c3n(c(=NC(=O)c4cnc(N)nc4)nc12)CCN3 — what was its viability, T/C?
Response line: 57.8

====

System: T-47D spheroids with HUVEC/MSC, viability
assay_details: Anticancer human tumor T-47D cell line growth inhibition [PI3K];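 note: spheroids exposed to agents for seven days before reading; percent of DMSO vehicle control luminescence so 100% = untreated growth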
assay_context: second compound 0.0316 µM; first compound 10 µM; hits give low values
Would you kindly list viability, T/C for each of these compounds?
Reply numerically in %, unit not repeated.

Prompt line: Sample CCCS(=O)(=O)Nc1ccc(F)c(C(=O)c2c[nH]c3ncc(-c4ccc(Cl)cc4)cc23)c1F + COc1c(OCCCN2CCOCC2)ccc2c3n(c(=NC(=O)c4cnc(N)nc4)nc12)CCN3 — what was its viability, T/C?
Response line: 52.2

Prompt line: Sample C[C@@H](NC(=O)c1ncnc(N)c1Cl)c1ncc(C(=O)Nc2cc(C(F)(F)F)c(Cl)cn2)s1 + CC(Nc1ccc2c(c1)OCCn1cc(N3C(=O)OCC3C(F)F)nc1-2)C(N)=O — what was its viability, T/C?
Response line: 94.7

Prompt line: Sample C[C@@H](NC(=O)c1ncnc(N)c1Cl)c1ncc(C(=O)Nc2cc(C(F)(F)F)c(Cl)cn2)s1 + COc1c(OCCCN2CCOCC2)ccc2c3n(c(=NC(=O)c4cnc(N)nc4)nc12)CCN3 — what was its viability, T/C?
Response line: 68.9

Prompt line: Sample CC(C)NCC(C(=O)N1CCN(c2ncnc3c2C(C)CC3O)CC1)c1ccc(Cl)cc1 (stereo not given) + Cc1nc(NC(=O)N2CCCC2C(N)=O)sc1-c1ccnc(C(C)(C)C(F)(F)F)c1 — what was its viability, T/C?
Response line: 55.3

Prompt line: Sample CC(C)NCC(C(=O)N1CCN(c2ncnc3c2C(C)CC3O)CC1)c1ccc(Cl)cc1 (stereo not given) + COc1c(OCCCN2CCOCC2)ccc2c3n(c(=NC(=O)c4cnc(N)nc4)nc12)CCN3 — what was its viability, T/C?
Response line: 38.3

====

Tested on: T-47D spheroids with HUVEC/MSC, viability
assay_details: Anticancer human tumor T-47D cell line growth inhibition [PI3K];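 note: spheroids exposed to agents for seven days before reading; percent of DMSO vehicle control luminescence so 100% = untreated growth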
assay_context: second compound 1 µM; first compound 1 µM; hits give low values
Description: Combinatorial screen of targeted agents with the PI3K inhibitors inavolisib, alpelisib, duvelisib, and copanlisib in multi-cell type tumor spheroids A high-throughput screen of multi-cell type tumor spheroids was designed to identify active combinations of targeted small molecules and PI3K pathway inhibitors. […] Compounds. […] If the clinical Cmax for an agent had not been determined, the highest concentration tested was 10 microM. […]
recorded_metric: viability, T/C (%)
Reply numerically in %, unit not repeated.

Prompt line: Sample CC(Cn1ccc(-c2ccc(C#N)c(Cl)c2)n1)NC(=O)c1cc(C(C)O)[nH]n1 (centres undefined) + COc1c(OCCCN2CCOCC2)ccc2c3n(c(=NC(=O)c4cnc(N)nc4)nc12)CCN3 — what was its viability, T/C?
Response line: 5.85

Prompt line: Sample CCCS(=O)(=O)Nc1ccc(F)c(C(=O)c2c[nH]c3ncc(-c4ccc(Cl)cc4)cc23)c1F + Cc1nc(NC(=O)N2CCCC2C(N)=O)sc1-c1ccnc(C(C)(C)C(F)(F)F)c1 — what was its viability, T/C?
Response line: 78.3

Prompt line: Sample CC(C)NCC(C(=O)N1CCN(c2ncnc3c2C(C)CC3O)CC1)c1ccc(Cl)cc1 (centres undefined) + COc1c(OCCCN2CCOCC2)ccc2c3n(c(=NC(=O)c4cnc(N)nc4)nc12)CCN3 — what was its viability, T/C?
Response line: 5.31

Prompt line: Sample Cn1ncc(Cl)c1-c1cc(C(=O)NC(CN)Cc2cccc(F)c2)sc1Cl (centres undefined) + Cc1nc(NC(=O)N2CCCC2C(N)=O)sc1-c1ccnc(C(C)(C)C(F)(F)F)c1 — what was its viability, T/C?
Response line: 53.9

Prompt line: Sample C#Cc1c(F)ccc2cc(O)cc(-c3ncc4c(N5CC6CCC(C5)N6)nc(OCC56CCCN5CC(F)C6)nc4c3F)c12 (centres undefined) + CC(Nc1ncnc2nc[nH]c12)c1cc2cccc(Cl)c2c(=O)n1-c1ccccc1 — what was its viability, T/C?
Response line: 76.7

Prompt line: Sample CC1(C)CCC(CN2CCN(c3ccc(C(=O)NS(=O)(=O)c4ccc(NCC5CCOCC5)c([N+](=O)[O-])c4)c(Oc4cnc5[nH]ccc5c4)c3)CC2)=C(c2ccc(Cl)cc2)C1 + CC(Nc1ccc2c(c1)OCCn1cc(N3C(=O)OCC3C(F)F)nc1-2)C(N)=O — what was its viability, T/C?
Response line: 57.2

Prompt line: Sample C=CC(=O)N1CCN(c2nc(=O)n(-c3c(C)ccnc3C(C)C)c3nc(-c4c(O)cccc4F)c(F)cc23)C(C)C1 (centres undefined) + COc1c(OCCCN2CCOCC2)ccc2c3n(c(=NC(=O)c4cnc(N)nc4)nc12)CCN3 — what was its viability, T/C?
Response line: 9.25

Prompt line: Sample C[C@@H](NC(=O)c1ncnc(N)c1Cl)c1ncc(C(=O)Nc2cc(C(F)(F)F)c(Cl)cn2)s1 + CC(Nc1ccc2c(c1)OCCn1cc(N3C(=O)OCC3C(F)F)nc1-2)C(N)=O — what was its viability, T/C?
Response line: 57.9

Prompt line: Sample CC(Cn1ccc(-c2ccc(C#N)c(Cl)c2)n1)NC(=O)c1cc(C(C)O)[nH]n1 (centres undefined) + CC(Nc1ccc2c(c1)OCCn1cc(N3C(=O)OCC3C(F)F)nc1-2)C(N)=O — what was its viability, T/C?
Response line: 46.1
